The values you see were collected from patent US10316017B2.

Biological target: human Cot catalytic domain (30-397 amino acids) (Homo sapiens)
Construct: Purified recombinant human Cot catalytic domain (30-397 amino acids) was purchased from Cama Biosciences; purchased Cama Biosciences (so in the source)
Test: High Throughput Cot Biochemical Assay (KinEASE TR-FRET)
Details: Cot KinEASE TR-FRET, 400 μM ATP; read-out: IC50 HTRF
reported.metric: pIC50
On this scale, pIC50 is minus log10 of a concentration expressed in M (mol/L).

Q. Field request: pIC50 | item: [2H]C(Nc1cc(C#N)c2ncc(C#N)c(NCC(C)(C)C)c2c1)(c1cccc(C#N)c1)c1cn(C2(C(N)=O)CC2)nn1 (stereo not drawn)
A. 9.00

----------
Quick list: pIC50 per entry.
Target: human Cot catalytic domain (30-397 amino acids) (Homo sapiens, UniProt P41279)
Construct: Purified recombinant human Cot catalytic domain (30-397 amino acids) was purchased from Cama Biosciences; purchased Cama Biosciences (so in the source)
Sequence (P41279 30-397): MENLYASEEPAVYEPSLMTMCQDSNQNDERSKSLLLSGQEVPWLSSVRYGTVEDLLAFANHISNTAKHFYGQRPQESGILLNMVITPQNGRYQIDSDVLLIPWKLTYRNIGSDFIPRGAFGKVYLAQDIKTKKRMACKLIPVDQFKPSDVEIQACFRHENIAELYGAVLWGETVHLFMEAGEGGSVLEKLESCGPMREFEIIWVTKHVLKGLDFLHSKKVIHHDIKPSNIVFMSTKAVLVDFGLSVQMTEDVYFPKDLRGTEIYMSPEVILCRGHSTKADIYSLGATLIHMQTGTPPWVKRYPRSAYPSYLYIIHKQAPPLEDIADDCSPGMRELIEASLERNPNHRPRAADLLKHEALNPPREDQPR
Assay: High Throughput Cot Biochemical Assay (KinEASE TR-FRET)
Details: Cot biochemical HTRF (KinEASE TR-FRET) assay; read-out: IC50 HTRF
On this scale, pIC50 is minus log10 of a concentration expressed in M (mol/L).

Observe how each entry below is paired with its result.
CCN1CC2C(C1)C2n1cc([C@@H](Nc2cc(Cl)c3ncc(C#N)c(Nc4ccc(F)c(Cl)c4)c3c2)c2ccccc2)nn1 (stereo partly shown)    8.70
CC[C@@H](Nc1c(C#N)cnc2c(Cl)cc(N[C@@H](c3ccc(Cl)cc3)c3cn(C4CCN(C(C)(C)C)CC4)nn3)cc12)c1ccccc1    8.00
N#Cc1cnc2c(Cl)cc(N[C@@H](c3ccc(F)cc3)c3c[nH]nn3)cc2c1NCC1CCCCO1 (stereo partly shown)    5.87
CC(C)n1cc([C@@H](Nc2cc(Cl)c3ncc(C#N)c(Nc4ccc(F)c(Cl)c4)c3c2)c2cccc(CN3CCCC3)c2)nn1    7.89

Q. Field request: pIC50 | item: CC(C)(C)N1CCC(n2cc([C@@H](Nc3cc(Cl)c4ncc(C#N)c(NC5CC6CCC5C6)c4c3)c3ccccc3)nn2)CC1 (stereo partly shown)
A. 7.48

Q. Field request: pIC50 | item: CC(C)n1cc([C@@H](Nc2cc(Cl)c3ncc(C#N)c(Nc4ccc(F)c(Cl)c4)c3c2)c2cccc(N3CCC3=O)c2)nn1
A. 8.30

Q. Field request: pIC50 | item: N#Cc1cnc2c(Cl)cc(N[C@H](c3cn(C4COC4)nn3)c3c(F)cc(F)cc3F)cc2c1Nc1cnc(F)c(F)c1
A. 7.04

----------
Target: human Cot catalytic domain (30-397 amino acids) (Homo sapiens)
Construct: Purified recombinant human Cot catalytic domain (30-397 amino acids) was purchased from Cama Biosciences; purchased Cama Biosciences (so in the source)
Experiment: High Throughput Cot Biochemical Assay (KinEASE TR-FRET)
Conditions: Cot KinEASE TR-FRET, 400 μM ATP; read-out: IC50 HTRF
Quick list: pIC50 per entry.
On this scale, pIC50 is minus log10 of a concentration expressed in M (mol/L).

Observe how each entry below is paired with its result.
[2H][C@](Nc1cc(Br)c2ncc(C#N)c(NCC(C)(C)C)c2c1)(c1ccc(F)cc1)c1cn(CC(O)CNC(C)(C)C)nn1 (some centres unmarked) [Example 988]    7.85
CC(C)(C)CNc1c(C#N)cnc2c(C#N)cc(N[C@H](c3cn(C4(C#N)CCC4)nn3)c3ccccc3Cl)cc12 [Example 952]    8.10
Cn1cc(C(Nc2cc(Cl)c3ncc(C#N)c(Nc4ccc(F)c(Cl)c4)c3c2)c2ccc(Cl)c(Cl)c2)nn1 (centres unmarked) [Example 892]    7.11

Q. Field request: pIC50 | item: Cc1c(-c2cnco2)cccc1[C@H](Nc1cc(Cl)c2ncc(C#N)c(NCC(C)(C)C)c2c1)c1cn(C2(C(F)F)CC2)nn1 [Example 1167]
A. 8.30

Q. Field request: pIC50 | item: Cc1c(-c2cnco2)cccc1[C@H](Nc1cc(C#N)c2ncc(C#N)c(NCC(C)(C)C)c2c1)c1cn(C2(C(F)(F)F)CC2)nn1 [Example 1131]
A. 8.52
